Where these numbers come from: PubChem BioAssay (NCI)

- Test system: HCT-15 colon
- Measurement Protocol: NCI-60 one-dose screen, 48 h
- Experimental Parameters: 10 µM unless noted
About 83,000 compounds went through this panel and 20% of them were active in at least one assay; those are over-represented in the sample as a whole. The source made the active and inactive calls. The calls were made as follows: active = growth percent below 10; inactive = the rest.
Outcome codes: true (1) for active, false (0) for inactive

INSERT INTO assay_data (molecule, category_label) VALUES
  ('COc1cc(-c2ccc(NC(=O)CC(C)=O)c(OC)c2)ccc1NC(=O)CC(C)=O', 'false (0)'),
  ('COc1cc(OC)c2cc(C(=O)c3ccc(C#N)cc3)c(=O)oc2c1', 'false (0)'),
  ('C=CC1=NC(C)(C)CC(C)O1 (stereo unspecified)', 'false (0)'),
  ('COc1ccc(NNS(=O)(=O)O)cc1', 'false (0)'),
  ('ON1CCCC1', 'false (0)'),
  ('CCOC(=O)/C(C)=C\c1ccc(OC)c(OC)c1', 'false (0)'),
  ('C=CCOc1ccc(Cl)cc1Cl', 'false (0)'),
  ('COC(=O)Cc1cc(COC(C)=O)ccc1C', 'false (0)'),
  ('CCOC(=O)CNC', 'false (0)'),
  ('Oc1ccc(N=Cc2ccc(OCc3ccccc3)cc2)cc1', 'false (0)'),
  ('CCOc1ccc(C(=O)O)cc1', 'false (0)'),
  ('CC1(C)CC(=O)C=C(N)C1', 'false (0)'),
  ('Nc1ccc(F)cc1F', 'false (0)'),
  ('CCCCCCCCCCCCCCCCCC(=O)NCCNC(=O)CCCCCCCCCCCCCCCCC', 'false (0)'),
  ('NNc1ncnc2c1ncn2C1OC(CO)C(O)C1O (stereo unspecified)', 'false (0)'),
  ('CC(C)NC(=O)OCc1c(COC(=O)NC(C)C)c(-c2ccc(Cl)cc2)n2c1CCC2', 'false (0)'),
  ('CN(C(=S)S(=O)(=O)C12CC3CC(CC(C3)C1)C2)c1ccccc1', 'false (0)'),
  ('CC(=O)Nc1ccc(/C=C2\SC(=S)N(/C=C(\C(C)=O)C(N)=O)C2=O)cc1', 'false (0)'),
  ('Cc1c(-c2ccc(C3CCCCC3)cc2)nc2ccc(F)cc2c1C(=O)O', 'false (0)'),
  ('Nc1cc2c(cc1Cl)C(=O)c1ccccc1C2=O', 'false (0)'),
  ('Cc1ccc(N2C(=O)c3cccc4c(N)c(S(=O)(=O)O)cc(c34)C2=O)cc1', 'false (0)'),
  ('CN1CCN(C(=S)S)CC1', 'false (0)'),
  ('COC(=O)c1ccc([N+](=O)[O-])c(C)c1', 'false (0)'),
  ('CN(CCCN(C)CCC1CCCCC1)CCC1CCCCC1', 'true (1)'),
  ('COc1ccc2c(Cl)cc(NC(=O)Nc3c(C)cccc3C)nc2c1', 'false (0)'),
  ('O=C(c1ccc(Cl)cc1)N1CCCCC1', 'false (0)'),
  ('CCOC(=O)CO', 'false (0)'),
  ('CC(C)Sc1ncnc2nc[nH]c12', 'false (0)'),
  ('COc1ccc(/C=N/NC(=O)COCC(=O)N/N=C/c2ccc(OC)cc2)cc1', 'false (0)'),
  ('Cc1cc(NC(=O)c2ccccc2)c(Cl)cc1N', 'false (0)'),
  ('CC(C)(N)CO[C@H]1C[C@H]2CC[C@@]1(C)C2(C)C', 'false (0)'),
  ('O=C(CCCl)OCCOc1ccccc1', 'false (0)'),
  ('O=C(Nc1ccc([N+](=O)[O-])cc1)C(=O)Nc1ccc([N+](=O)[O-])cc1', 'false (0)'),
  ('O=C1NC(=O)/C(=C\c2ccncc2)N1', 'false (0)'),
  ('C=CCc1cc(OC)c(O)c(OC)c1', 'false (0)'),
  ('Nc1ncnc2c1ncn2C1OC(CO)C2OC21 (stereo unspecified)', 'false (0)'),
  ('C/C(O)=C(/C=N\C(=S)Nc1ccc(S(=O)(=O)Nc2nccs2)cc1)C(=O)Nc1ccccc1C', 'false (0)'),
  ('O=C(O)C1CCCN1C(=O)OCc1ccccc1 (stereo unspecified)', 'false (0)'),
  ('O=C1C=C[C@H](O)[C@@]2(CO)O[C@@H]12', 'false (0)'),
  ('CCC12OC(COc3ccccc3)CN1CCN2c1ccccc1 (stereo unspecified)', 'false (0)'),
  ('COc1ccc(-c2csc(NC(=O)Nc3nc(-c4ccc(OC)cc4)cs3)n2)cc1', 'false (0)'),
  ('Cc1ccnc(Nc2nc3ccccc3[nH]2)n1', 'false (0)'),
  ('COc1ccc2c(ccc[n+]2C)c1', 'false (0)'),
  ('NNC(=O)c1ccccc1N', 'false (0)'),
  ('CCCc1cccc(CCC)c1NC(=O)Nc1cc(Cl)cc(Cl)c1', 'false (0)'),
  ('Cc1[nH]c(=S)[nH]c(=O)c1C', 'false (0)');
